- Experimental target: Mgal-WhiA Lys-216 (Mycoplasma gallisepticum S6, UniProt A0A0F6CKV5 1-295, K217G)
- Procedure text: MST; EMSA: 20 mM carbonate pH 9.8, 6% glycerol, 37 C 10 min, gel at 10 C; MST: PBS (10 mM Na phosphate pH 7.4, 140 mM NaCl, 3 mM KCl), 0.05% Tween-20, 50 mM imidazole, 50 nM duplex, 20 C
- Assay setup: protein: recombinant; label: 5' FAM (EMSA) or HEX (MST) on strand 1; blunt
Measured quantity: pKd
Answers are plain numbers, as −log10 of the molar value.

The recorded pKd for entry rpsJ WT (dsDNA) DNA 1: AAAGATTGCTGATACACCAAAAACCGTTGTCAAGTATCAG DNA 2: CTGATACTTGACAACGGTTTTTGGTGTATCAGCAATCTTT equals 5.77

Data credit: paper PMC11701221
